- assay_protocol: Cmax in Sprague-Dawley rat plasma at 10 mg/kg, iv measured up to 48 hrs by LC-MS/MS analysis
- Format: ADME, organism-based
- Parameters: dose 10 mg/kg, time < 48 hrs, route iv
recorded_endpoint: Cmax (ng/mL)
Report as a plain number; the unit ng/mL is understood.

Data point: `O=C(Cc1cccc(Oc2ccccc2)c1)Nc1nnc(N[C@@H]2CCN(c3cccnn3)C2)s1` ; Cmax = 6500

----------
- assay_protocol: MRT(0 to t) in Sprague-Dawley rat plasma at 10 mg/kg, iv measured up to 48 hrs by LC-MS/MS analysis
- Assay type: ADME, organism-based
recorded_endpoint: MRT last at 48 h
Answer format: number, then unit.

Data point: `O=C(Cc1cccc(Oc2ccccc2)c1)Nc1nnc(N[C@@H]2CCN(c3cccnn3)C2)s1` ; MRT last at 48 h = 1.52 h
